Cited source for all entries: paper PMC4351158

# TARGET ENTITY: T1, DegS P161A (E. coli, UniProt P0AEE3 27-355, P161A)
# T1 sequence (looked up): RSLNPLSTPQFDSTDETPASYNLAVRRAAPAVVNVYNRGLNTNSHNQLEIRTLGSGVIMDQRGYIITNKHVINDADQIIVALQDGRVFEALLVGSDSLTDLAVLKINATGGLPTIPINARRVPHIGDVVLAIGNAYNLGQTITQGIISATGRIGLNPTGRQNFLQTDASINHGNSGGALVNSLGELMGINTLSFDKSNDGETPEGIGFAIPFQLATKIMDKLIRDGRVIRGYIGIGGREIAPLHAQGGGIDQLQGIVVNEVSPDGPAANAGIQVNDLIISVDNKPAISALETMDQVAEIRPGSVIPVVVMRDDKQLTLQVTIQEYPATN
# MEASUREMENT NOTES: fluorescence polarisation
pKd: −log10 of the molar value. Where no end group is shown, it is not given here. fluorescein = fluorescein, a fluorescent label on the peptide N-terminus

BINDER: fluorescein-DNRDGNVYYF [fluorescent OMP peptide fluorescein-DNRDGNVYYF]
pKd: 5.82
